system.name: UniProtKB P03070
Sequence (P03070 whole entry): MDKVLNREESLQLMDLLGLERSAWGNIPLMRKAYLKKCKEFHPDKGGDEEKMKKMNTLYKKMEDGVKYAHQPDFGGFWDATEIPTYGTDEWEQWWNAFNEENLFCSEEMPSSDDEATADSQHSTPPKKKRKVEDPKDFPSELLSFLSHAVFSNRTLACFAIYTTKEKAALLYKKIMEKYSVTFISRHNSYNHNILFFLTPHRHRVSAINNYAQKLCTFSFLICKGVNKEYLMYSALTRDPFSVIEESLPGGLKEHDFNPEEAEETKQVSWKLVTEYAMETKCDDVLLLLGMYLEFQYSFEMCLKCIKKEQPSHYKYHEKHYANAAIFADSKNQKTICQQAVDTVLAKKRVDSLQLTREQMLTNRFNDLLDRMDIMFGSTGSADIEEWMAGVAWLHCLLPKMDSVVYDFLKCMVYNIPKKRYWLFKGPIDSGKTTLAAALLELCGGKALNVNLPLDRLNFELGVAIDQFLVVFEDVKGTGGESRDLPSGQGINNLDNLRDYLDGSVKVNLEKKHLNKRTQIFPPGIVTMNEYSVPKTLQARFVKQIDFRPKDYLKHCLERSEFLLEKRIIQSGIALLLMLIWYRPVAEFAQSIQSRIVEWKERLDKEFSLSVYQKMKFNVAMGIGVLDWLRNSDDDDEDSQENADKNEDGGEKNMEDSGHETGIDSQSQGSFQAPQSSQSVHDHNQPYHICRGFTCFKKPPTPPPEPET
Type: functional, Betapolyomavirus macacae
Activity calls are given as the source filed them.
The entries below are paired with their reported IC50.

Lookup: IC50 / UniProtKB P03070 / O=C(c1ccc([N+](=O)[O-])cc1)N1CCN(c2cccc3[nH]ccc23)CC1
25.9 µM (active)

Form field: IC50 recorded for C=CCOc1cccc(CNc2ccc3[nH]c(O)nc3c2)c1 with UniProtKB P03070 (enter value)
14.4 µM (active)

Report IC50 for Clc1ccccc1CSc1nnc(-c2ccco2)c(-c2ccco2)n1 tested on UniProtKB P03070.
54.4 µM (active)

====

EC50 overview
test: NIH3T3 cell viability loss – ATP luminescence, mouse fibroblasts, counter-screen, dose response (AID 2010);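 also: cells exposed to compound for about 90 hours before reading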
Format: functional, cell-based
Active and inactive are the calls of the source.

CCc1ccc(N/C(SCc2cccc(F)c2)=C(/C#N)C(=O)NCc2ccco2)cc1    10.4 µM (active)

Name the reported EC50 value associated with the compound Cc1ccc(C(=O)NC(=S)Nc2ccc(Oc3ccc(Cl)cc3)cc2)cc1
> 60 µM (inconclusive)

Given the entry COc1cc2nc(N(C)C)nc(N)c2cc1OC , report its measured EC50.
> 60 µM (not active)
